- studySystem: Receptor tyrosine-protein kinase erbB-2 (Homo sapiens, UniProt P04626)
- Sequence (P04626 whole entry): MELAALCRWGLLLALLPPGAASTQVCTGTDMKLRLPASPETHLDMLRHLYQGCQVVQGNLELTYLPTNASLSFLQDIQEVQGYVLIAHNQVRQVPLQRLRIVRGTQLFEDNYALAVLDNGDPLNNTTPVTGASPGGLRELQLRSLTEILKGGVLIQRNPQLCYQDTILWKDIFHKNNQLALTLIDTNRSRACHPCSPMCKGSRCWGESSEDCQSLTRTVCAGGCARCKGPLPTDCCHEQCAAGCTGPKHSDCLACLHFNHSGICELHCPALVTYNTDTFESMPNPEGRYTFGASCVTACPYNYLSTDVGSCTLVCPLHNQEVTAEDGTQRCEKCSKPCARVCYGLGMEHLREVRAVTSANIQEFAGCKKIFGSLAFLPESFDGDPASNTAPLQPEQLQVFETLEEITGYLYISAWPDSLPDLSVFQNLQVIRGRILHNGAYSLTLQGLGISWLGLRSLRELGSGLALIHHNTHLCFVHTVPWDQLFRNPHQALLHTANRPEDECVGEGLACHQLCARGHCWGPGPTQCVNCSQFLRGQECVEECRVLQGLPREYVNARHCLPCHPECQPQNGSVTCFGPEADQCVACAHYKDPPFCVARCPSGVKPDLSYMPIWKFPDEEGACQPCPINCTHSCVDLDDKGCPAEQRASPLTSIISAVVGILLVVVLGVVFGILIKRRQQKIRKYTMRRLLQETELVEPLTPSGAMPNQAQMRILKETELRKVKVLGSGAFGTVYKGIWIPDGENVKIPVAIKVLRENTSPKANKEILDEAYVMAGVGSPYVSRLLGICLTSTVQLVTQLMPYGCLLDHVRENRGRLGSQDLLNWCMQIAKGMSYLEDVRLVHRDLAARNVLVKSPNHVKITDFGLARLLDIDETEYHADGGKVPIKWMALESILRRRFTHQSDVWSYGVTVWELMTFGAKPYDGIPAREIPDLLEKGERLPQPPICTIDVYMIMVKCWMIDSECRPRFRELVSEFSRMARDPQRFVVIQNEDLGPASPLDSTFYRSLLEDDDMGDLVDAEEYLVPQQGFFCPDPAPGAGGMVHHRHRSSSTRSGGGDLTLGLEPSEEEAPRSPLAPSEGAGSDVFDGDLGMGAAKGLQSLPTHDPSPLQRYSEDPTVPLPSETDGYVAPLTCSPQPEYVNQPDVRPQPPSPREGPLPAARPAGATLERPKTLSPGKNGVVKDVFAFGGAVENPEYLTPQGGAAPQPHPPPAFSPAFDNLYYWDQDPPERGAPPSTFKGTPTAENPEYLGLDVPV
- assayProcedure: Inhibitory activity tested against protein kinase HER-2
Exercise: state measured pIC50 for each of the compounds provided.
Numbers only, as −log10 of the molar value.

{"smilesEntry": "COc1cc(/C=C(\\C#N)C(N)=O)cc(CSCc2ccccc2)c1O", "reportedMeasurement": 5.00}
{"smilesEntry": "COc1cc(/C=C(\\C#N)C(N)=O)cc(CSc2cccc3ccccc23)c1O", "reportedMeasurement": 5.34}
{"smilesEntry": "N#C/C(=C\\c1ccc(O)c(O)c1)C(=O)NCCCCc1ccccc1", "reportedMeasurement": 3.30}

Give one value of pIC50 per listed compound.
1. COc1cc(/C=C(\C#N)C(N)=O)cc(CSc2nc3cc(Cl)ccc3s2)c1O
2. COc1cc(/C=C(\C#N)C(N)=O)cc(CSc2ccccc2NC(C)=O)c1O
3. COc1cc(/C=C(\C#N)C(N)=O)cc(CSc2nc3ccccc3o2)c1O
4. COc1cc(/C=C(\C#N)C(N)=O)cc(CSc2ccc(C)cc2)c1O
5. COc1cc(C=C(C#N)C#N)cc(SCC(=O)O)c1O
6. N#C/C(=C\c1cc(O)c(O)c(CSCc2ccccc2)c1)C(N)=O

1. 4.82
2. 5.48
3. 5.82
4. 5.78
5. 5.34
6. 5.99

Supply recorded pIC50 for `N#C/C(=C\c1ccc(O)c(O)c1)C(=O)NCc1ccc(O)cc1` here.
5.54
